# ASSAY DETAILS: chemical genetic growth profiling, strain panel (AID 1159580);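 further: tested at 20 µM; growth read once vehicle control cultures reached saturation at 30 °C; 1 = growth at the plate median or of vehicle wells; lower values mean less growth of the strain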
# CONDITION DESCRIPTION: S. cerevisiae deletion strains, growth OD, locus YDL028C, strain MPS1, stronger effect = lower value
About 2,000 (36%) of roughly 5,500 compounds were called active. Not shown: some 18% with an inconclusive outcome. This is one part of the list.
# normalized growth per record follows
OBSERVATION TYPE: normalized growth

> print(dat)
                                    molecule   observation.type  quantitative.result
 1  COc1c(Br)csc1C(=O)O/N=C(/N)c1cc(C(F)(F)F)cc(C(F)(F)F)c1  normalized growth                0.988
 2  Cc1ccc(-n2cccc2)c(NS(=O)(=O)c2ccc(-c3ccno3)s2)c1  normalized growth                0.933
 3             Clc1ccc(SCc2ccsc2-c2ncns2)cc1  normalized growth                0.971
 4           Brc1ccc(-c2csc(-c3ccncc3)n2)cc1  normalized growth                 0.92
 5  O=[N+]([O-])c1cccc(C2CC(c3ccccc3)=Nc3ccccc3S2)c1 (stereo not drawn)  normalized growth                0.965
 6  Cc1onc(-c2c(Cl)cccc2Cl)c1C(=O)O/N=C(/N)Cc1ccc(C(C)(C)C)cc1  normalized growth                0.993
 7  Clc1ccc(CN2CCN(c3cccc4[nH]ccc34)CC2)cc1Cl  normalized growth                0.999
 8  O=C1c2cccc3c(Sc4ccccc4)ccc(c23)C(=O)N1NCCO  normalized growth                0.924
 9  Cc1c(C)c(C)c(C(=O)c2ccc(N=Cc3cc(Cl)cc(Cl)c3O)cc2)c(C)c1C  normalized growth                0.941
10  N/C(Cc1cccc2ccccc12)=N/OC(=O)c1ccc(Cl)cc1  normalized growth                0.916
11  CC(C)(C)c1cc(C(=O)NNc2cccc(Cl)c2)n(Cc2ccccc2)n1  normalized growth                0.975
12  CC(C)(C)c1cc(C(=O)Nc2ccc3c(c2)OCO3)n(Cc2ccc(F)cc2)n1  normalized growth                0.991
13  CCOC(=O)/C(C#N)=C(\Nc1ccc(C(=O)OCC)cc1)SC  normalized growth                0.984
14  Cc1nn(-c2cccc(Cl)c2)c2oc(=O)cc(C(F)(F)F)c12  normalized growth                0.979
15  CC(=O)c1ccc(Cl)c(N=Cc2cc(Cl)cc(Cl)c2O)c1  normalized growth                 0.91
16  COC(=O)c1sccc1NS(=O)(=O)c1cc(Cl)cc(Cl)c1  normalized growth                0.958
17                        N#CSCC(=O)c1ccccc1  normalized growth                0.108
18  C#CCSC1=NNC(c2ccccn2)S1 (stereo not drawn)  normalized growth                0.917
19  CCOC(=O)c1ccc(Cl)c(N=Cc2cc(Cl)cc(Cl)c2O)c1  normalized growth                0.946
20  O=S(=O)(Nc1ccccc1Oc1ccccc1)c1ccc(-c2ccno2)s1  normalized growth                0.965
21  O=C(CSC1=NNC(c2ccccn2)S1)Nc1ccccc1 (stereo not drawn)  normalized growth                0.998
22      CSc1n[nH]c(-c2cc(C(C)(C)C)oc2C)c1C#N  normalized growth                0.966
23    O=S(=O)(Oc1ccc(-c2csnn2)cc1)c1ccccc1Cl  normalized growth                0.968
